assay: Assessment of solubility: HT solubility in pION buffer, UV spectrophotometry; conditions: pION system solution buffer, pH 7.4, pH 7.4, aqueous buffer, kinetic from dmso stock, Solubility (pH 7.4), pH 7.4 buffer, 16-19 h incubation, 1.0% DMSO
observable: solubility

compound: Cc1ccc(OCc2ccc(C(=O)N3CCCCC3)cc2C)c(-c2csc(N3C[C@H]4C[C@@H](C3)[C@H]4C(=O)O)n2)c1 [Compound 236]
solubility: > 54 µg/mL
//
compound: Cc1cc(C(=O)N2CCCCC2)ccc1COc1ccc(Cl)cc1-c1csc(N2C3CCC2CC(C(=O)O)C3)n1 (stereo not shown) [Compound 117]
solubility: > 57 µg/mL

Would you kindly look at the next entry?
Value of measured solubility for the entry Cc1cc(C(=O)N2CCCC2)ccc1COc1c(C)cccc1-c1csc(N2CCC(C(=O)O)CC2)n1 [Compound 15] : > 51 µg/mL
